Record form. Attribute: PI scPTZ, protective index (TD50/ED50). Fill in for each entry.
System: PTZ-induced seizures
Test: Subcutaneous pentylenetetrazole (PTZ) test
Format: in vivo, mice
Settings: male, Kunming, mouse, in vivo, ip

Check out these entries, answers already filled in.
> print(dat)
                                   molecule  reading
1  CCCCCOc1ccc(-c2ccnc3ncnn23)cc1 [Compound 6c]     16.0
2  c1ccc(COc2ccc(-c3ccnc4ncnn34)cc2)cc1 [Compound 6e]     12.9
3  CCCC(CCC)C(=O)O [Valproate, reference compound]      2.8
4  NC(=O)N1c2ccccc2C=Cc2ccccc21 [Carbamazepine, reference compound]    <0.44

Alright, here's another molecule for you.
Consider the molecule CCCCCCOc1ccc(-c2ccnc3ncnn23)cc1 [Compound 6d] tested on PTZ-induced seizures; state its PI scPTZ, protective index (TD50/ED50).
22.5
